Test: Inhibition of recombinant human His-tagged KGA R387L mutant expressed in Escherichia coli BL21(DE3)pLysS using glutamine substrate preincubated for 10 mins followed by substrate addition measured after 60 mins
measurement.kind: IC50 (nM)

smiles_text=O=C1NC(=O)/C(=C/c2ccc(-c3ccc(-n4c(-c5ccccc5)cc(/C=C5\SC(=O)NC5=O)c4-c4ccccc4)cc3)cc2)S1 measurement_kind=IC50 recorded_value=603
smiles_text=O=C(Cc1ccccc1)Nc1nnc(CCSCCc2nnc(NC(=O)Cc3ccccc3)s2)s1 measurement_kind=IC50 recorded_value=345

a = Cc1cc(/C=C2\SC(=O)NC2=O)c(C)n1-c1ccc(-c2ccc(/C=C3\SC(=O)NC3=O)cc2)cc1
b = Cc1cc(/C=C2\SC(=O)NC2=O)c(C)n1-c1ccc(-c2ccc(/C=C3\SC(=O)NC3=O)c(Cl)c2)cc1
**Q:** Quick one: lower IC50, a or b ? Pick one and reply with its label.
**A:** b
(b: 770 nM, a: 1270 nM)
